target: human Npt2a (Homo sapiens); assay: Npt2a activity cell based assay, membrane potential dye, CHO T-REx hNpt2a cells; conditions: doxycycline-induced, depolarization by sodium phosphate influx, average or median values if tested more than once
Sequence (Q06495 whole entry): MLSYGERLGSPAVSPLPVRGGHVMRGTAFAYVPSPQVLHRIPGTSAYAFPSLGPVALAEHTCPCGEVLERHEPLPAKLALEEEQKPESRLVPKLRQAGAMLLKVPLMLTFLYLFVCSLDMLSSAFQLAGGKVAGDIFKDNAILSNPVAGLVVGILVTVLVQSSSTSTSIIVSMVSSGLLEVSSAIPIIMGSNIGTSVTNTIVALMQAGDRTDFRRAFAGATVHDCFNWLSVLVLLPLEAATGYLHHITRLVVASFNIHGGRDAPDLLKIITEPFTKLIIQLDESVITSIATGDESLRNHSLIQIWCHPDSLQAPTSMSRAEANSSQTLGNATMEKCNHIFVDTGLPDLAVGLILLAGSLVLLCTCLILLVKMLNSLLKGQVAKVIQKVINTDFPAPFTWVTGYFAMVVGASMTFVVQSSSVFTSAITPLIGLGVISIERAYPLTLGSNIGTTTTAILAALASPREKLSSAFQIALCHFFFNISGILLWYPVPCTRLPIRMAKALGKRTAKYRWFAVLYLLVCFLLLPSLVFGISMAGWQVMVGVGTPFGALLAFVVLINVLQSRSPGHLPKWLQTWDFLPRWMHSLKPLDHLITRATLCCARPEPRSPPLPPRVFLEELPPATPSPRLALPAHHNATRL
Label Yes when IC50 is strictly below 100 nM; otherwise label No.

>  <compound>
CCc1c(Nc2cc(-n3nc(C)c4ccccc43)ncn2)n[nH]c1-c1ccc(F)cc1

>  <classification>
No

$$$$
>  <compound>
COc1ccc(-c2nn(CC3CC3)c(Nc3cc(-n4nc(C)c(Cl)c4C)ncn3)c2C)cn1

>  <classification>
No

$$$$
>  <compound>
COC(C)c1c(C)nn(-c2cc(Nc3nn(C)c(-c4ccc(F)cc4)c3C)ncn2)c1C (racemic) [Example 343]

>  <classification>
Yes

$$$$
>  <compound>
Cc1nn(-c2cc(Nc3nn(C)c(-c4ccccc4)c3C)ncn2)c(C)c1Cl

>  <classification>
Yes

$$$$
>  <compound>
Cc1nn(-c2cc(Nc3c(C)nn(-c4ccc(C#N)cc4)c3C)ncn2)c(C)c1Cl

>  <classification>
No

$$$$
>  <compound>
Cc1nn(-c2cc(Nc3nn(CC(F)F)c(-c4ccc(F)cc4)c3Cl)ncn2)c(C)c1Cl

>  <classification>
Yes

$$$$
>  <compound>
CCOC(=O)c1c(C)nn(-c2cc(Nc3c(C)c(-c4ccc(F)cn4)nn3CC3CC3)ncn2)c1C

>  <classification>
Yes

$$$$
>  <compound>
Cc1cc(C)n(-c2cc(Nc3nn(C)c(-c4ccc(F)cc4)c3C3CC3)ncn2)n1

>  <classification>
Yes

$$$$
>  <compound>
CCc1c(Nc2cc(-n3nc(C)cc3C)ncn2)nn(S(C)(=O)=O)c1-c1ccc(F)cc1

>  <classification>
No

$$$$
>  <compound>
Cc1cc(C)n(-c2cc(Nc3c(C)c(-c4ccc(F)cn4)nn3CC3CC3)ncn2)n1

>  <classification>
No

$$$$

* * *

molecular target: human Npt2a (Homo sapiens); experiment: Npt2a activity cell based assay, membrane potential dye, CHO T-REx hNpt2a cells; conditions: doxycycline-induced, depolarization by sodium phosphate influx, average or median values if tested more than once

>  <mol>
COCCn1nc(-c2ccc(C(F)F)cc2)c(C)c1Nc1cc(-n2nc(C)c(Cl)c2C)ncn1

>  <IC50 (nM)>
26

$$$$
>  <mol>
Cc1cc(C)n(-c2cc(Nc3nn(C)c(-c4ccc(C(F)(F)F)cc4)c3C)ncn2)n1

>  <IC50 (nM)>
11.5

$$$$
>  <mol>
Cc1nn(-c2cc(Nc3c(C)nn(-c4ccc(F)cc4)c3C)ncn2)c(C)c1CC(C)(C)O

>  <IC50 (nM)>
180

$$$$
>  <mol>
CCc1c(Nc2cc(-n3nc4ncccc4c3C)ncn2)nn(C)c1-c1ccc(F)cc1

>  <IC50 (nM)>
550

$$$$
>  <mol>
Cc1nn(-c2cc(Nc3c(C)c(-c4ccc(F)cc4)nn3C)ncn2)c(C)c1Cl

>  <IC50 (nM)>
31.5

$$$$
>  <mol>
CCc1c(Nc2cc(-n3nc(C)c(Cl)c3C)ncn2)nn(CC2CC2)c1-c1ccc(F)cc1

>  <IC50 (nM)>
520

$$$$
>  <mol>
CCCN1Cc2cn(-c3cc(Nc4c(C)c(-c5ccc(F)cc5)nn4CC4CC4)ncn3)nc2C1

>  <IC50 (nM)>
690

$$$$
>  <mol>
Cc1cc(C)n(-c2cc(Nc3n[nH]c(-c4ccc(C#N)cc4)c3C)ncn2)n1

>  <IC50 (nM)>
700

$$$$
>  <mol>
CCc1c(Nc2cc(-n3nc(C)cc3C(F)F)ncn2)nn(C)c1-c1ccc(C#N)cc1

>  <IC50 (nM)>
2

$$$$
>  <mol>
CCOC(=O)c1c(C)nn(-c2cc(Nc3c(C)c(-c4ccc(Cl)cc4)nn3C)ncn2)c1C

>  <IC50 (nM)>
40

$$$$

The measured values listed here are drawn from patent US11208400B2.
